study.system: Serine acetyltransferase (NgSAT) (Neisseria gonorrhoeae)
Sequence (Q5F6X0 entry or part of it): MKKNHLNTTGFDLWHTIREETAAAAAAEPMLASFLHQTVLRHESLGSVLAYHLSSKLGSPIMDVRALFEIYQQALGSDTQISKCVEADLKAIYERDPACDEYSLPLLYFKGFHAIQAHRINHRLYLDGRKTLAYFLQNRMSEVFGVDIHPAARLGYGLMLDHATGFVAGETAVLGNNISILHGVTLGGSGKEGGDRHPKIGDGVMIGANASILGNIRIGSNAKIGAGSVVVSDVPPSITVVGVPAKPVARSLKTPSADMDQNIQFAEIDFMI
value.type: IC50 (µM)
# output: bare number, implied unit µM

Missing value: IC50, Serine acetyltransferase (NgSAT) (Neisseria gonorrhoeae), entry `CC(C)(COP(=O)(O)OP(=O)(O)OC[C@H]1O[C@@H](n2cnc3c(N)ncnc32)[C@H](O)[C@@H]1OP(=O)(O)O)[C@@H](O)C(=O)NCCC(=O)NCCS` . Fill in?
573
